Every entry's value here was drawn from patent US11932606B2.

# System: Colo357
# ASSAY COMMENT: Cell viability assay (CellTiter-Glo, day 7)
# Format: cell-based
# COND: Homo sapiens, 168 h; Colo357, day 7
ENDPOINT NAME: IC50

INSERT INTO measurements (compound, endpoint_name, endpoint_result) VALUES
  ('Nc1nccc2c(Br)cc3cc(C(=O)[O-])ccc3c12.[Na+] [Compound 29]', 'IC50', '1 to 10 µM');

---

# collection of IC50 values tested on CSNK2A1 (CK2 alpha 1) (Homo sapiens (Human))
# Sequence (P68400 whole entry): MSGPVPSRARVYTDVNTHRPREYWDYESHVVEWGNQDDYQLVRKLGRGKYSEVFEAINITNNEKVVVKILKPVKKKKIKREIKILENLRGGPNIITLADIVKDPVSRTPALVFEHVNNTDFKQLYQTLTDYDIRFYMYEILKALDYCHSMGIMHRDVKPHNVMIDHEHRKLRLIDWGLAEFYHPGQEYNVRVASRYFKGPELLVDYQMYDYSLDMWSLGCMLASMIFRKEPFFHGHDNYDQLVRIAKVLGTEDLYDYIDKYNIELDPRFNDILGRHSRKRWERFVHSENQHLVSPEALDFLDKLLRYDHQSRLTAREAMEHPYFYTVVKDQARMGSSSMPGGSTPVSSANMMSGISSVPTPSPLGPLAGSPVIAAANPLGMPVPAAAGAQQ
ENDPOINT NAME: IC50

INSERT INTO assay_data (compound, endpoint_name, endpoint_result) VALUES
  ('O=C(O)c1ccc2c(c1)cc([N+](=O)[O-])c1ccncc12', 'IC50', '< 300 nM'),
  ('N#Cc1cc2cc(C(=O)O)ccc2c2cnccc12', 'IC50', '< 300 nM'),
  ('O=C(O)c1ccc2c(c1)cc(NC1CCCC1)c1ccncc12', 'IC50', '< 300 nM');
